- procedure.details: Solubility in fasted state-simulated intestinal fluid
- Assay type: physicochemical
test.readout: solubility (µg/mL)
Expressed in µg/mL, but write only the number.

Q: Return reported solubility; argument: C[C@H]1COCCN1c1nc(NCc2cccnc2C(F)(F)F)c2cccnc2n1 [AWZ1066S]
Result: 560

----------
- procedure.details: Permeability in LLC-PK1 cell assay
- Type: in vitro ADME
- condition.parameters: pig
test.readout: Papp
Field: value (include unit after the number)

Q: Return reported Papp; argument: C[C@H]1COCCN1c1nc(NCc2cccnc2C(F)(F)F)c2cccnc2n1 [AWZ1066S]
Result: 74 nm/s

----------
- procedure.details: Mouse PK in BALB/c mice
- condition.parameters: in vivo, iv, 5 mg/kg, total clearance, dosed intravenously
test.readout: clearance (mL/min/kg)
Expressed in mL/min/kg, but write only the number.

Q: Return reported clearance; argument: C[C@H]1COCCN1c1nc(NCc2cccnc2C(F)(F)F)c2cccnc2n1 [AWZ1066S]
Result: 7.83
